# assayed system: Estrogen Receptor (ERα) in MCF-7 cells (Homo sapiens (Human), UniProt P03372)
# Sequence (P03372 whole entry): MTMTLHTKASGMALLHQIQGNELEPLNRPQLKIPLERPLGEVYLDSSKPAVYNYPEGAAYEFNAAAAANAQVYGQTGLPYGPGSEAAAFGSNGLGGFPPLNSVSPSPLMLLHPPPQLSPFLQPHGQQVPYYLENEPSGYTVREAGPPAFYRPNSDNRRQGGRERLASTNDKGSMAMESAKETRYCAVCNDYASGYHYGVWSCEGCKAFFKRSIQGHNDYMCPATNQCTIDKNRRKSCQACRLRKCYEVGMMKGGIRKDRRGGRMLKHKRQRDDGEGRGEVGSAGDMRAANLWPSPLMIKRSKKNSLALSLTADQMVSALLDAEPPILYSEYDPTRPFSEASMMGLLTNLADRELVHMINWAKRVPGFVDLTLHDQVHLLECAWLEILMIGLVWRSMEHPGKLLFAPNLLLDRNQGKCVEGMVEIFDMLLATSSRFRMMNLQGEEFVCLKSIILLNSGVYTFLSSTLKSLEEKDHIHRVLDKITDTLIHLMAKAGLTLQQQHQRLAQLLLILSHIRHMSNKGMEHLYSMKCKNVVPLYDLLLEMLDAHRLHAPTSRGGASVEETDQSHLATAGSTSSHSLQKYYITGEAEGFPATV
# experimental protocol: MCF-7 ER down-regulation assay (immuno-fluorescence)
pIC50: −log10 of the molar value.
Kind request: treat 9 as inclusive, so pIC50 at 9 or higher is TRUE, anything lower is FALSE.

COc1cc(F)c(NCCNCCCF)cc1[C@@H]1c2[nH]c3ccccc3c2C[C@@H](C)N1CC(F)(F)F    FALSE
C[C@@H]1Cc2c([nH]c3ccccc23)[C@@](C)(c2cccc(OCCNCCCF)c2)N1CC(F)(F)F    FALSE
C[C@@H]1Cc2c([nH]c3ccccc23)[C@@H](c2c(F)ccc(OCCNCCCF)c2F)N1CC1(F)COC1    TRUE
COc1ccc(OCCNCCCF)cc1[C@@H]1c2[nH]c3ccc(F)cc3c2C[C@@H](C)N1CC(F)(F)CO    TRUE
COc1cnc(OCCNCCCF)cc1[C@@H]1c2[nH]c3ccccc3c2C[C@@H](C)N1CC(F)(F)F    TRUE
Cc1c(OCCNCCCF)ncc(F)c1[C@@H]1c2[nH]c3ccccc3c2C[C@@H](C)N1CC(F)(F)CO    TRUE
C[C@@H]1Cc2c([nH]c3ccccc23)[C@@H](c2c(F)ccc(OCCN(C)CCCF)c2C(F)F)N1C[C@H](C)C(=O)O    TRUE
Cc1c(OCCN(C)CCCF)ncc(F)c1[C@@H]1c2[nH]c3ccccc3c2C[C@@H](C)N1C(C)CC(=O)O (single isomer, unassigned) [Example 159]    TRUE

(Q) Does `COc1ccc(NCCNCCCF)cc1[C@@H]1c2[nH]c3ccccc3c2C[C@@H](C)N1CC(F)(F)F` have a reported pIC50 of at least 9?
(A) TRUE

###

# assayed system: Estrogen Receptor (ERα) in MCF-7 cells (Homo sapiens (Human))
# experimental protocol: MCF-7 ER down-regulation assay (immuno-fluorescence)
pIC50: −log10 of the molar value.
Label rule, in plain words: pIC50 of 9 and up is label 1, under 9 is label 0.

(Q) Reported pIC50 reaches at least 9 for `C[C@@H]1Cc2c([nH]c3ccccc23)[C@@H](c2cccc(OCCNCCCF)c2C(F)F)N1CC(F)(F)CO` ?
(A) label 1

(Q) Exam item: decide whether the reported pIC50 for `C[C@@H]1Cc2c([nH]c3ccccc23)[C@@H](c2c(F)ccc(OCCN(C)CCCF)c2F)N1C[C@H](C)C(=O)O` is at least 9.
(A) label 0

(Q) Does pIC50 meet or surpass 9 for `C[C@@H]1Cc2c([nH]c3ccccc23)[C@@H](c2c(F)cnc(OCCNCCCF)c2F)N1CC(F)(F)CO` ?
(A) label 1

(Q) I'd appreciate it if you could say whether `C[C@@H]1Cc2c([nH]c3ccccc23)[C@@H](c2c(F)ccc(OCCNCCCF)c2F)N1CC(F)F` has pIC50 at least equal to 9.
(A) label 1

###

Collected IC50 values appear next to each entry.
# assayed system: hERG potassium channel (Homo sapiens (Human))
# Sequence (Q12809 whole entry): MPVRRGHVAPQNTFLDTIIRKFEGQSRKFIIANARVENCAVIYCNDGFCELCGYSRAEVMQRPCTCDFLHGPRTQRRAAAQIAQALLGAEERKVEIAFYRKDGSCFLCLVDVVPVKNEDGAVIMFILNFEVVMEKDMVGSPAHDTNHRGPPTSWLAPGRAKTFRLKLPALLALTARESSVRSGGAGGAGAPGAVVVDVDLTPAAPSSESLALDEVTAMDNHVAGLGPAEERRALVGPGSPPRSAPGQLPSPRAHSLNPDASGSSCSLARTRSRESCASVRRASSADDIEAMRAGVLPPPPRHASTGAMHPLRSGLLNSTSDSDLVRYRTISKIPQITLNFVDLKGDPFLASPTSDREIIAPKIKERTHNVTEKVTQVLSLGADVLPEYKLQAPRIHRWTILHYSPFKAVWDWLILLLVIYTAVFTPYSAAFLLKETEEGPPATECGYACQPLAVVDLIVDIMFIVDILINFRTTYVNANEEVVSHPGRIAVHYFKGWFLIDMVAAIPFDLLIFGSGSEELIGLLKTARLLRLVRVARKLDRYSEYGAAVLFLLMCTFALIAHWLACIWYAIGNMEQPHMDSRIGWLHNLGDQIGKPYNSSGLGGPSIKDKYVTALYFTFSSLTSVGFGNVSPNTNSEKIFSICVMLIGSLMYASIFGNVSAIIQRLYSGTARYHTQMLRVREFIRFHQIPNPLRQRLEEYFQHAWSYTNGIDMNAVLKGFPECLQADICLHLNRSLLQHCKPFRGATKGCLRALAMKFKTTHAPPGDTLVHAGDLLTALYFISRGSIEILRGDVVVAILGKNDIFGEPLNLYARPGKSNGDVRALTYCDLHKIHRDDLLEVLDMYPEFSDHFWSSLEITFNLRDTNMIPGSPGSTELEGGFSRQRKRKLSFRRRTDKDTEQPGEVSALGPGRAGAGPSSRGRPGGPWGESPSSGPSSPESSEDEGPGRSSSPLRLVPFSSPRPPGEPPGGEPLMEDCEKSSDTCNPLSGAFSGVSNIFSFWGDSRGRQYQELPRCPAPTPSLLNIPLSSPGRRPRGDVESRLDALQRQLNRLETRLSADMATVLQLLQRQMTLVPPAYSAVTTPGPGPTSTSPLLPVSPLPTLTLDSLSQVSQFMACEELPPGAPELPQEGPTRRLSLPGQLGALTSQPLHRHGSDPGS
Field format: number, assumed µM, no unit text.

Worked cases, answers included:
Cc1c(OCCNCCCF)ncc(F)c1[C@@H]1c2[nH]c3ccccc3c2C[C@@H](C)N1CC(F)(F)CO    2.8
Cc1ccc(OCCNCCCF)nc1[C@@H]1c2[nH]c3ccccc3c2C[C@@H](C)N1CC(F)(F)F    3.5
COc1ccc(OCCNCCCF)c(F)c1[C@@H]1c2[nH]c3ccc(F)cc3c2C[C@@H](C)N1CC(F)(F)CO    3.9
C[C@@H]1Cc2c([nH]c3ccccc23)[C@@H](c2c(F)ccc(OCCNCCCF)c2Cl)N1CC(F)(F)CO    4.2
COc1cc(F)c(NCCNCCCF)cc1[C@@H]1c2[nH]c3ccccc3c2C[C@@H](C)N1CC(F)(F)F    2.6

Lab book: IC50 of `C[C@@H]1Cc2c([nH]c3ccccc23)[C@@H](c2nccc(NCCNCCCF)c2F)N1CC(F)(F)F` noted as 9.9

// field: IC50; key: `COc1ccc(OCCNCCCF)c(C)c1[C@@H]1c2[nH]c3ccccc3c2C[C@@H](C)N1CC(F)(F)F` ; value = 4.1

Looking up `COc1ccc(O[C@H](C)CNCCCF)cc1[C@@H]1c2[nH]c3ccccc3c2C[C@@H](C)N1CC(F)(F)CO` , I see its IC50 listed as 3.2

Sample `Cc1c([C@@H]2c3[nH]c4ccccc4c3C[C@@H](C)N2CC(F)(F)CO)ccnc1OCCNCCCF` ; IC50 observed: 4.3
